Numbers sourced from PubChem BioAssay (NCI).

Tested on: SNB-19 CNS
assay name: NCI-60 one-dose screen, 48 h (100 = growth as untreated, 0 = no growth, -100 = all killed)
protocol conditions: 10 µM unless noted
About 83,000 compounds went through this panel and 20% of them were active in at least one assay; those are over-represented in the sample as a whole. Calls of active or inactive are those of the source. How the source made its calls: active means growth percent below 10; inactive means the rest.
experimental readout: growth

Use these answered entries as a reference point.
molecule	target system	observed result
CC[C@H](C)[C@H](NC(=O)[C@H]1CCCCN1C)C(=O)N(C)[C@H](CCc1nc(C(=O)N[C@@H](Cc2ccccc2)C[C@H](C)C(=O)O)cs1)C(C)C	SNB-19 CNS	39.5% (inactive)
CC[C@H](C)[C@H](NC(=O)C12CC(NC)(C1)C2)C(=O)N(C)[C@H](C[C@@H](OC(C)=O)c1nc(C(=O)N[C@@H](Cc2ccccc2)C[C@H](C)C(=O)OC)cs1)C(C)C	SNB-19 CNS	33.5% (inactive)
CCCCS(=O)(=O)Cl	SNB-19 CNS	110% (inactive)
O=C(NC(Cl)=C(Cl)Cl)P(=O)(c1ccccc1)c1ccccc1	SNB-19 CNS	96.1% (inactive)
COC(=O)[C@@H](C)C[C@H](Cc1ccccc1)NC(=O)c1cccc([C@@H](C[C@H](C(C)C)N(C)C(=O)[C@@H](NC(=O)[C@H]2CCCCN2C)C2CC2)OC(C)=O)n1	SNB-19 CNS	30% (inactive)
O=C1C=C(N2CC2)c2ccccc2C1=O	SNB-19 CNS	82.7% (inactive)
O=C(O)C(Br)CBr (configuration not stated)	SNB-19 CNS	107% (inactive)
O=P(O)(Nc1ccccc1)Nc1ccccc1	SNB-19 CNS	95.3% (inactive)
CCC(=O)C(CC(C)[N+](C)(C)C)(c1ccccc1)c1ccccc1 (configuration not stated)	SNB-19 CNS	96.8% (inactive)
CCOC(=O)c1cncn1C(C)c1ccccc1 (configuration not stated)	SNB-19 CNS	106% (inactive)

Lab note: next molecule to report on.
**Q:** Record request: growth value, item CC1OC(=O)C(C(C)C)NC(=O)C(C(C)C)OC(=O)C(C(C)C)NC(=O)C(C)OC(=O)C(C(C)C)NC(=O)C(C(C)C)OC(=O)C(C(C)C)NC(=O)C(C)OC(=O)C(C(C)C)NC(=O)C(C(C)C)OC(=O)C(C(C)C)NC1=O (configuration not stated)
**A:** -17% (active)

###

Test system: HOP-92 NSCLC
assay name: NCI-60 one-dose screen, 48 h (100 = growth as untreated, 0 = no growth, -100 = all killed)
protocol conditions: 10 µM unless noted
This is part of a sample that, as a whole, favours compounds with a hit. Of some 83,000 tested, about 20% had one in any assay. Calls of active or inactive are those of the source. Rule for the calls: active = growth percent below 10; inactive = the rest.
# reported growth; entries follow

Consider the worked cases shown below.
compound	growth
CC(C)COC(=O)Cc1ccccc1	95.1% (inactive)
O=C(Cc1ccccc1)NC(O)C(Cl)(Cl)Cl (stereo unspecified)	123% (inactive)
CC(=O)Nc1nc2c(s1)C1=CC[C@H]3[C@@H]4CC[C@H](OC(C)=O)[C@@]4(C)CC[C@@H]3[C@@]1(C)CC2	87.2% (inactive)
COc1cc2c(c(OC)c1OC)-c1ccc(O)cc1[C@@H](NC(C)=O)CC2	16.7% (inactive)
c1ccc2c(c1)sc1ccccc12	74.7% (inactive)

**Q:** State the recorded growth for this entry: COC(=O)C1=CCCN(C)C1
**A:** 76.9% (inactive)

###

System: SR leukemia
assay name: NCI-60 one-dose screen, 48 h (100 = growth as untreated, 0 = no growth, -100 = all killed)
protocol conditions: 10 µM unless noted
This is part of a sample that, as a whole, favours compounds with a hit. Of some 83,000 tested, about 20% had one in any assay. Active and inactive are the calls of the source. Rule for the calls: active = growth percent below 10; inactive = the rest.
Measured growth, listed per entry for reference.

compound	growth
N#CC(NC(=O)CCl)=C(Cl)Cl	-18.2% (active)
C[N+]1(CC#CC[N+]2(C)CCCC2)CCCC1	96.7% (inactive)
O=C(NC1=NCC[Se]1)c1ccccc1O	19% (inactive)
C#COc1cccc(Nc2ncnc3cc(NC(=O)CF)ccc23)c1	20.9% [6.25 µM] (inactive)
CCN1C(=O)NC(=O)C(C)(N2C(=O)c3c(F)c(F)c(F)c(F)c3C2=O)C1=O (stereo not drawn)	-64.6% (active)
Cc1cc(NC(=O)NCCCOc2ccc(N3C(N)=NC(N)=NC3(C)C)cc2Cl)ccc1S(=O)(=O)F	22.4% (inactive)
Oc1cc(Cl)ccc1Oc1ccc(Cl)cc1Cl	3.21% (active)
C[C@]12CC[C@H]3[C@@H](CC=C4c5nc(-c6ccc(Br)cc6)sc5CC[C@@]43C)[C@@H]1CC[C@@H]2O	98.2% (inactive)

**Q:** Item under review: N#CC(N)c1ccccc1 (stereo not drawn) . Reported growth?
**A:** 101% (inactive)

**Q:** What value of measured growth is listed for CC(=O)Nc1nc2c(s1)C1=CC[C@H]3[C@@H]4CC[C@H](OC(C)=O)[C@@]4(C)CC[C@@H]3[C@@]1(C)CC2 ?
**A:** 21.5% (inactive)

**Q:** If you can, please state the reported growth value of CN1[C@@H](CC(=O)c2ccccc2)CCC[C@H]1CC(=O)c1ccccc1 .
**A:** 111% (inactive)

###

Test system: HS 578T breast
assay name: NCI-60 one-dose screen, 48 h
protocol conditions: 10 µM unless noted
This is part of a sample that, as a whole, favours compounds with a hit. Of some 83,000 tested, about 20% had one in any assay. Activity calls are given as the source filed them. The calls were made as follows: active = growth percent below 10; inactive = the rest.
Select the matching outcome among active, inactive

**Q:** Would you mind telling me which call this test gave CC12CCC3C(CCC4CC(O)CCC43C)C1CCC2=O (configuration not stated) ?
**A:** inactive

**Q:** What outcome does the record of this test show for S=P(SP(=S)(c1ccccc1)c1ccccc1)(c1ccccc1)c1ccccc1 ?
**A:** inactive

###

Test system: UACC-62 melanoma
assay name: NCI-60 one-dose screen, 48 h
protocol conditions: 10 µM unless noted
This is part of a sample that, as a whole, favours compounds with a hit. Of some 83,000 tested, about 20% had one in any assay. Active and inactive are the calls of the source. How the source made its calls: active means growth percent below 10; inactive means the rest.
// classify into TRUE for active, FALSE for inactive

For orientation, consider the following solved cases.
compound	cat
COc1ccc(N(CC(=O)NCCC[Te]c2ccccc2)C(=O)c2ccccc2)cc1	FALSE
CC[C@H](C)[C@H](NC(=O)[C@H]1CCCCN1C)C(=O)N(C)[C@H](C(=O)NC12CC(C(=O)N[C@@H](Cc3ccccc3)C[C@H](C)C(=O)OC)(C1)C2)C(C)C	FALSE
CCC1(CCSC#N)C(=O)NC(=O)NC1=O	FALSE
O=S(OO)c1cc(Cl)c(O)c(Cl)c1 (stereo unspecified)	FALSE

**Q:** Assay result, entry CCC(=O)C(CC(C)[N+](C)(C)C)(c1ccccc1)c1ccccc1 (stereo unspecified) — outcome?
**A:** FALSE

**Q:** Any idea what this test logged for NC1CN2CCC1CC2 (stereo unspecified) ?
**A:** FALSE

**Q:** Called result for CC1=C(C)C(=O)O[C@@H]([C@](C)(O)[C@]2(O)CC[C@@]3(O)[C@@H]4C[C@H]5O[C@]56CC=CC(=O)[C@]6(C)[C@H]4CC[C@]23C)C1
**A:** TRUE

**Q:** Would you mind telling me which call this test gave CC1=CC(=O)CCC12CCOC2=O (stereo unspecified) ?
**A:** FALSE

**Q:** GET /call?item= CCCn1cc2c3c(cccc31)[C@H]1C[C@@H](C)CN(C)[C@@H]1C2 returns the recorded outcome of this test.
**A:** FALSE

**Q:** Hi, do you know how O=C(NC(Cl)=C(Cl)Cl)P(=O)(c1ccccc1)c1ccccc1 came out in this test?
**A:** FALSE

**Q:** Field: outcome | Entry: CCC1(NC(=O)c2cc(F)c(F)c(F)c2F)C(=O)NC(=O)N(C(C)C)C1=O (stereo unspecified)
**A:** FALSE

**Q:** What did the test return for ClCc1ccc(Cl)c(Cl)c1 ?
**A:** FALSE

**Q:** Record lookup: outcome of this test for O=C1C=C(N2CC2)c2ccccc2C1=O ?
**A:** FALSE

**Q:** Would you mind telling me which call this test gave C[C@@]12CCCc3coc(c31)C(=O)c1cc3c(cc12)C(=O)C1=C(NCCS1(=O)=O)C3=O ?
**A:** TRUE

**Q:** What was the test verdict on COc1ccn(C)c(=O)c1C#N ?
**A:** FALSE

**Q:** For CCOC(=O)C1C(C=C(C)C)C1(C)C (stereo unspecified) , what call appears in the results of this test?
**A:** FALSE

###

Tested on: MOLT-4 leukemia
assay name: NCI-60 one-dose screen, 48 h (100 = growth as untreated, 0 = no growth, -100 = all killed)
protocol conditions: 10 µM unless noted
Compounds without any hit were thinned out: in the full panel of roughly 83,000, 20% have a hit.
experimental readout: growth (%)
Quick reminder: number only, in %, skip the unit.

For orientation, consider the following solved cases.
molecule	target system	experimental readout	observed result
Cc1ccccc1-n1c(/C=C\c2ccccn2)nc2ccccc2c1=O	MOLT-4 leukemia	growth	32.7
CC(=O)C(N)Cc1ccccc1 (centres undefined)	MOLT-4 leukemia	growth	101
COC(=O)C1=CO[C@@H](C)[C@@H]2CN3CCc4c([nH]c5cc(OC)ccc45)[C@@H]3C[C@H]12	MOLT-4 leukemia	growth	94.8

**Q:** Tell me the measured growth of Cc1cc(N(CCCl)CCCl)ccc1C=Nc1ccc(-c2csc(-c3ccccc3)n2)cc1 , please.
**A:** 22.5
